Just for reference, patent US11129845B2 is where these values come from.

- PROTOCOL_NOTES: Nanoparticle diameter and polydispersity by dynamic light scattering (Malvern Zetasizer)
- Format: physicochemical
- MEASUREMENT_SETUP: N/P = 5
- Experimental: The cationic lipid carriers are dissolved in ethanol at a stock concentration of 2.5 mM, while all siRNA is reconstituted in nuclease-free water at a 0.25 μg/μL (18.8 μM) concentration. […] A linear standard curve was utilized to calculate the encapsulation efficiencies from signal intensities measured by a SpectraMax microplate reader (Molecular Devices).
METRIC: Polydispersity of siRNA-lipid complexes

[[record]]
molecule = "CCCCC/C=C\\C/C=C\\CCCCCCCC(=O)NC(CS)C(=O)NCCNC(=O)CCN(CCCNCCCCNCCCN)CCC(=O)NCCNC(=O)C(CS)NC(=O)CCCCCCC/C=C\\C/C=C\\CCCCC (stereo not shown) [SCLn]"
assay_value = 0.233

[[record]]
molecule = "CCCCC/C=C\\C/C=C\\CCCCCCCC(=O)NC(CS)C(=O)NC(Cc1cnc[nH]1)C(=O)NCCNC(=O)CCN(CCCNCCCCNCCCN)CCC(=O)NCCNC(=O)C(Cc1cnc[nH]1)NC(=O)C(CS)NC(=O)CCCCCCC/C=C\\C/C=C\\CCCCC (stereo not shown) [SHCLn]"
assay_value = 0.183

[[record]]
molecule = "CCCCCCCC/C=C\\CCCCCCCC(=O)N[C@@H](CS)C(=O)NCCNC(=O)CCN(CCN)CCC(=O)NCCNC(=O)[C@H](CS)NC(=O)CCCCCCC/C=C\\CCCCCCCC [ECO]"
assay_value = 0.200

[[record]]
molecule = "CCCCC/C=C\\C/C=C\\CCCCCCCC(=O)NC(CS)C(=O)NC(Cc1cnc[nH]1)C(=O)NCCNC(=O)CCN(CCN)CCC(=O)NCCNC(=O)C(Cc1cnc[nH]1)NC(=O)C(CS)NC(=O)CCCCCCC/C=C\\C/C=C\\CCCCC (stereo not shown) [EHCLn]"
assay_value = 0.197

[[record]]
molecule = "CCCCCCCC/C=C\\CCCCCCCC(=O)NC(CS)C(=O)NCCNC(=O)CCN(CCCNCCCCNCCCN)CCC(=O)NCCNC(=O)C(CS)NC(=O)CCCCCCC/C=C\\CCCCCCCC (stereo not shown) [SCO]"
assay_value = 0.236

[[record]]
molecule = "CCCCCCCC/C=C\\CCCCCCCC(=O)NC(CS)C(=O)NC(Cc1cnc[nH]1)C(=O)NCCNC(=O)CCN(CCN)CCC(=O)NCCNC(=O)C(Cc1cnc[nH]1)NC(=O)C(CS)NC(=O)CCCCCCC/C=C\\CCCCCCCC (stereo not shown) [EHCO]"
assay_value = 0.195

[[record]]
molecule = "CCCCCCCC/C=C\\CCCCCCCC(=O)NC(CS)C(=O)NC(Cc1cnc[nH]1)C(=O)NCCNC(=O)CCN(CCCNCCCCNCCCN)CCC(=O)NCCNC(=O)C(Cc1cnc[nH]1)NC(=O)C(CS)NC(=O)CCCCCCC/C=C\\CCCCCCCC (stereo not shown) [SHCO]"
assay_value = 0.192


###

- PROTOCOL_NOTES: Zeta-potential of siRNA-lipid complexes (Malvern Zetasizer)
- Assay type: physicochemical
- MEASUREMENT_SETUP: pH = 7.4, N/P = 8
- Experimental: The cationic lipid carriers are dissolved in ethanol at a stock concentration of 2.5 mM, while all siRNA is reconstituted in nuclease-free water at a 0.25 μg/μL (18.8 μM) concentration. […] A linear standard curve was utilized to calculate the encapsulation efficiencies from signal intensities measured by a SpectraMax microplate reader (Molecular Devices).
Each item that follows carries a reported Zeta-potential of siRNA-lipid complexes.
METRIC: Zeta-potential of siRNA-lipid complexes (mV)

[[record]]
compound = "CCCCCCCC/C=C\\CCCCCCCC(=O)N[C@@H](CS)C(=O)NCCNC(=O)CCN(CCN)CCC(=O)NCCNC(=O)[C@H](CS)NC(=O)CCCCCCC/C=C\\CCCCCCCC [ECO]"
metric = "Zeta-potential of siRNA-lipid complexes"
assay_value = 28.82

[[record]]
compound = "CCCCC/C=C\\C/C=C\\CCCCCCCC(=O)NC(CS)C(=O)NCCNC(=O)CCN(CCCNCCCCNCCCN)CCC(=O)NCCNC(=O)C(CS)NC(=O)CCCCCCC/C=C\\C/C=C\\CCCCC (stereo not shown) [SCLn]"
metric = "Zeta-potential of siRNA-lipid complexes"
assay_value = 26.03

[[record]]
compound = "CCCCCCCC/C=C\\CCCCCCCC(=O)NC(CS)C(=O)NCCNC(=O)CCN(CCCNCCCCNCCCN)CCC(=O)NCCNC(=O)C(CS)NC(=O)CCCCCCC/C=C\\CCCCCCCC (stereo not shown) [SCO]"
metric = "Zeta-potential of siRNA-lipid complexes"
assay_value = 23.16

[[record]]
compound = "CCCCC/C=C\\C/C=C\\CCCCCCCC(=O)NC(CS)C(=O)NC(Cc1cnc[nH]1)C(=O)NCCNC(=O)CCN(CCN)CCC(=O)NCCNC(=O)C(Cc1cnc[nH]1)NC(=O)C(CS)NC(=O)CCCCCCC/C=C\\C/C=C\\CCCCC (stereo not shown) [EHCLn]"
metric = "Zeta-potential of siRNA-lipid complexes"
assay_value = 0.49

[[record]]
compound = "CCCCCCCC/C=C\\CCCCCCCC(=O)NC(CS)C(=O)NC(Cc1cnc[nH]1)C(=O)NCCNC(=O)CCN(CCCNCCCCNCCCN)CCC(=O)NCCNC(=O)C(Cc1cnc[nH]1)NC(=O)C(CS)NC(=O)CCCCCCC/C=C\\CCCCCCCC (stereo not shown) [SHCO]"
metric = "Zeta-potential of siRNA-lipid complexes"
assay_value = 18.32

[[record]]
compound = "CCCCC/C=C\\C/C=C\\CCCCCCCC(=O)NC(CS)C(=O)NC(Cc1cnc[nH]1)C(=O)NCCNC(=O)CCN(CCCNCCCCNCCCN)CCC(=O)NCCNC(=O)C(Cc1cnc[nH]1)NC(=O)C(CS)NC(=O)CCCCCCC/C=C\\C/C=C\\CCCCC (stereo not shown) [SHCLn]"
metric = "Zeta-potential of siRNA-lipid complexes"
assay_value = 26.35

[[record]]
compound = "CCCCCCCC/C=C\\CCCCCCCC(=O)NC(CS)C(=O)NC(Cc1cnc[nH]1)C(=O)NCCNC(=O)CCN(CCN)CCC(=O)NCCNC(=O)C(Cc1cnc[nH]1)NC(=O)C(CS)NC(=O)CCCCCCC/C=C\\CCCCCCCC (stereo not shown) [EHCO]"
metric = "Zeta-potential of siRNA-lipid complexes"
assay_value = 5.54

